Biological target: EGFR (wild-type) (Homo sapiens)
Sequence (P00533 25-1210): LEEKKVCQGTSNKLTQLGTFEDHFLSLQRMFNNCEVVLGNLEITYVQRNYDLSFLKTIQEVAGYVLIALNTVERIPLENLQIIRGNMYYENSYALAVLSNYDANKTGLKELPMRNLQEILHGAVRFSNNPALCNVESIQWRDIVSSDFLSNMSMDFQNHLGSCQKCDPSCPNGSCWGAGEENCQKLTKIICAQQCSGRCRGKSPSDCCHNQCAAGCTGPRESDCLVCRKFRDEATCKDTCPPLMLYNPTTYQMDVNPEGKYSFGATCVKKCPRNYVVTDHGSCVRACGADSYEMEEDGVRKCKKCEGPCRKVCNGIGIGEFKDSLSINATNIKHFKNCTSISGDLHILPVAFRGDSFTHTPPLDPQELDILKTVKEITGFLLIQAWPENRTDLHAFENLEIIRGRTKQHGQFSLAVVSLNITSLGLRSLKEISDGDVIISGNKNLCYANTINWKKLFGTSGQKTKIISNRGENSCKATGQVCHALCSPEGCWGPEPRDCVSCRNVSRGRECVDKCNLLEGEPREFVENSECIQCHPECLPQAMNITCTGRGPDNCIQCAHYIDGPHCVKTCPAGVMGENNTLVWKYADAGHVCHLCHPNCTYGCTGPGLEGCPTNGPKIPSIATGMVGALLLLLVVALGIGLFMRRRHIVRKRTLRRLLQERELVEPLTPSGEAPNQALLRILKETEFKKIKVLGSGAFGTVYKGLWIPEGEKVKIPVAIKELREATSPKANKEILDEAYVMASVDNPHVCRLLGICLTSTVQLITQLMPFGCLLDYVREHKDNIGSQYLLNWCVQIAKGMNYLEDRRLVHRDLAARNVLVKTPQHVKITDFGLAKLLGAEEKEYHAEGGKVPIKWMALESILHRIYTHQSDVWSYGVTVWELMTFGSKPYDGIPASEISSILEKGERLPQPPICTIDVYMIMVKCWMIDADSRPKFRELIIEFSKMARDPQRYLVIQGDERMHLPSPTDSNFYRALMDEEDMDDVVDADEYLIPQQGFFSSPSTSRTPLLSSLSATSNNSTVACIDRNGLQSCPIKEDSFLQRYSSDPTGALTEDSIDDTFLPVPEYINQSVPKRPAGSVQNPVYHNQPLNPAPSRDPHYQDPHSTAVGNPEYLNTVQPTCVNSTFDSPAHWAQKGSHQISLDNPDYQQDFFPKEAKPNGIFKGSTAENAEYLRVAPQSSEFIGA
Experiment: MSA (Mobility Shift Assay) kinase activity, EGFR wild type
Assay type: biochemical
Settings: read-out: EGFR wt/ IC50/nM
IC50 by entry:

compound: CC(C)c1ccc(N2C[C@H](CS(C)(=O)=O)[C@H]2C)c2cnc(Nc3ccnc(-c4cnn(S(=O)(=O)C5CC5)c4)n3)cc12 [Compound H12]
result unit: nM
modifier: =
IC50: 1.9
--
compound: CNC(=O)CC1CN(c2ccc(C(C)C)c3cc(Nc4ccnc(N5CCC(O)C(F)C5)n4)ncc23)C1 (stereo not shown) [Compound P20]
result unit: nM
modifier: =
IC50: 90.9
--
compound: CC(C)c1ccc(N2CC(CS(C)(=O)=O)C2)c2cnc(Nc3ccnc(-c4cnn(S(=O)(=O)C5(C)CC5)c4)n3)cc12 [Compound H18]
result unit: nM
modifier: =
IC50: 7.3
--
compound: CC(C)c1ccc(N2CC(NS(=O)(=O)c3cccnc3)C2)c2cnc(Nc3ccnc(N4CCC(O)C(F)C4)n3)cc12 (stereo not shown) [Compound P28]
result unit: nM
modifier: =
IC50: 64
--
compound: CC(C)c1ccc(N2CC(CC(N)=O)C2)c2cnc(Nc3ccnc(N4CCC(O)C(F)C4)n3)cc12 (stereo not shown) [Compound P7]
result unit: nM
modifier: =
IC50: 50.5
--
compound: CC(C)c1ccc(N2CC(NC(=O)N(C)C)C2)c2cnc(Nc3ccnc(N4CCC(O)C(F)C4)n3)cc12 (stereo not shown) [Compound P10]
result unit: nM
modifier: >
IC50: 100
--
compound: CCCS(=O)(=O)n1cc(-c2nccc(Nc3cc4c(C(C)C)ccc(N5CC(CS(C)(=O)=O)C5)c4cn3)n2)cn1 [Compound H6]
result unit: nM
modifier: =
IC50: 5.2

====

Target: Ba/F3-FL-EGFR-L858R-T790M-C797S (Homo sapiens, UniProt P00533, T790M/C797S/L858R, cells depend on it)
Sequence (P00533 whole entry T790M/C797S/L858R): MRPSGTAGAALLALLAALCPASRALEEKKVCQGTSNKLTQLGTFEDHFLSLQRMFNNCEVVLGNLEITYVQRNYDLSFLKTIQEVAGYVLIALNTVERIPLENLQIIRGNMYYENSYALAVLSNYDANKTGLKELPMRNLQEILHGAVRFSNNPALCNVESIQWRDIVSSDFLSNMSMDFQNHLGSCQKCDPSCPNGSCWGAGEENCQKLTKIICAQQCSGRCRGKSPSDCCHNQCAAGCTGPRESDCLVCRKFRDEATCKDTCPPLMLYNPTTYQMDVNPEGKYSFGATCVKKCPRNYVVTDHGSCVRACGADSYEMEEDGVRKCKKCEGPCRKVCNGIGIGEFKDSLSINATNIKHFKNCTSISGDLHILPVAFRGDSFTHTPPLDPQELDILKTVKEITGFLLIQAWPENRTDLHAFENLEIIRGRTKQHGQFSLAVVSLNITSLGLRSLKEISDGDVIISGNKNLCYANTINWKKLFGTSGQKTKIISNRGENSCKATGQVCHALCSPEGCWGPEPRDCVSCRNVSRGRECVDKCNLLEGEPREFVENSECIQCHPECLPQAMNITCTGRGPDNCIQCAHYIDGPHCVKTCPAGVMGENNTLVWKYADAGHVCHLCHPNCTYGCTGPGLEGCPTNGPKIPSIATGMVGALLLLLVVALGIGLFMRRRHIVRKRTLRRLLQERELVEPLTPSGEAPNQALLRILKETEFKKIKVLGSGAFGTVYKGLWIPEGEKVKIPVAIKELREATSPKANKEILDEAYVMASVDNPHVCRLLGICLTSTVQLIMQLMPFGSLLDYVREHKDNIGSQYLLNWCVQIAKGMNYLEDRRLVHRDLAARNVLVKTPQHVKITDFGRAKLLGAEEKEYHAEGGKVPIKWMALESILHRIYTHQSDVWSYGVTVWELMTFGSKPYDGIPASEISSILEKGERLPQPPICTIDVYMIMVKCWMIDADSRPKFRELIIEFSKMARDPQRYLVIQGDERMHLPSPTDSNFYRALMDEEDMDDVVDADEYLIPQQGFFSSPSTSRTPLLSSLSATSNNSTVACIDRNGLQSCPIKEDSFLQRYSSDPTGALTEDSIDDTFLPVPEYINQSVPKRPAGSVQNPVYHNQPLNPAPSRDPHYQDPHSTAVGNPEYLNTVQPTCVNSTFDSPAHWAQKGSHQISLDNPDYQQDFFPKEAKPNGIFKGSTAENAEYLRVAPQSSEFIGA
Test: CellTiter-Glo proliferation, Ba/F3-FL-EGFR-L858R-T790M-C797S
Format: cell-based
Details: 72 hours, read-out: Ba/F3-FL-EGFR-L858R-T790M-C797S IC50/nM

compound: CCS(=O)(=O)N(C)[C@H]1CN(c2ccc(C(C)C)c3cc(Nc4ccnc(N5CCC(OC)C(F)C5)n4)ncc23)[C@@H]1C (stereo partly shown)
GI50 / nM: 5.6

compound: CC(C)c1ccc(N2CC(NS(C)(=O)=O)C2)c2cnc(Nc3ccnc(N4CCC(O)C(F)(F)C4)n3)cc12 (stereo not shown)
GI50 / nM: 47

compound: CC(C)c1ccc(N2CC(CS(C)(=O)=O)C2)c2cnc(Nc3ccnc(-c4cnn(C)c4)n3)cc12
GI50 / nM: 235

compound: CC(C)c1ccc(N2CC(CS(C)(=O)=O)C2)c2cnc(Nc3ccnc(-c4cnn(S(=O)(=O)C5(C)CC5)c4)n3)cc12
GI50 / nM: 150

====

Molecular target: Ba/F3-FL-EGFR (Homo sapiens)
Construct: FL read as full length
Sequence (P00533 whole entry, change not shown): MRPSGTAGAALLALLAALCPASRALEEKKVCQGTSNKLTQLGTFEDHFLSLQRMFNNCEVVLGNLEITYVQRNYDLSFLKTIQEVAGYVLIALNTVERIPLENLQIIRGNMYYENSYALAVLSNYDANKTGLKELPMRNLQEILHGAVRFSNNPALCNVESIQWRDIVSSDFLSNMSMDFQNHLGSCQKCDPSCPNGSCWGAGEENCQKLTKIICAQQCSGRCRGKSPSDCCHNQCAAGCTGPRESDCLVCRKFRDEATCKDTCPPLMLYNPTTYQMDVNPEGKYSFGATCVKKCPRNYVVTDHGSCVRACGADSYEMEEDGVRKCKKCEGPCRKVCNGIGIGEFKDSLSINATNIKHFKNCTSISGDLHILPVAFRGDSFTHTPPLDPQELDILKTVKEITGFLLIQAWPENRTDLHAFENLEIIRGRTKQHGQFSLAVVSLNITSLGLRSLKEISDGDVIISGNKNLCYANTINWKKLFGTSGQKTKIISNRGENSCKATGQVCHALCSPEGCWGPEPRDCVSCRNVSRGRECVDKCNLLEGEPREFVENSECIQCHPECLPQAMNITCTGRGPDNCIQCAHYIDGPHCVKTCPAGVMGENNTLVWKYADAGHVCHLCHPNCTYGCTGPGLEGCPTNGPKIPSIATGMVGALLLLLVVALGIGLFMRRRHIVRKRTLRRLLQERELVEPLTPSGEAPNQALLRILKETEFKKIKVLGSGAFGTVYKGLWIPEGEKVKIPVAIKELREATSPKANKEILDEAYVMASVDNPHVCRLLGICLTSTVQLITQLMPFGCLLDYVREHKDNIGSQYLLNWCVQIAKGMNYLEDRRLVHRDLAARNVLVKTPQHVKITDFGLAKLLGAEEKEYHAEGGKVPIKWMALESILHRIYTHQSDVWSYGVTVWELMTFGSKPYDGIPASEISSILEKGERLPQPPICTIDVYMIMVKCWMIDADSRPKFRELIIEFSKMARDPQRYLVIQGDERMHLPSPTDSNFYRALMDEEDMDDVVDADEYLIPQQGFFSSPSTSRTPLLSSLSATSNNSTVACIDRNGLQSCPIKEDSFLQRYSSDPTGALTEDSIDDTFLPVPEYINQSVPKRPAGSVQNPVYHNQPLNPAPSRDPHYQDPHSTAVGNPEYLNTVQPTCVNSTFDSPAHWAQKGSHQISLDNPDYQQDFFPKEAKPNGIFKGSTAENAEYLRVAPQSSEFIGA
Assay: CellTiter-Glo proliferation, Ba/F3-FL-EGFR
Type: cell-based
Conditions: 72 hours, read-out: Ba/F3-FL-EGFR IC50/nM
observed property: log10(GI50) (log10 of the value in nM)

compound: COC1CCN(c2nccc(Nc3cc4c(C(C)C)ccc(N5CC(NS(=O)(=O)C6COC6)C5)c4cn3)n2)CC1F (stereo not drawn) [Compound P37]
log10(GI50): 3.06
//
compound: CC(=O)NC1CN(c2ccc(C(C)C)c3cc(Nc4ccnc(N5CCC(O)C(F)C5)n4)ncc23)C1 (stereo not drawn) [Compound P35]
log10(GI50): 3.94
//
compound: CC(C)c1ccc(N2CC(CS(C)(=O)=O)C2)c2cnc(Nc3ccnc(-c4cnn(S(=O)(=O)C5COC5)c4)n3)cc12 [Compound H17]
log10(GI50): 2.93
//
compound: [2H]C([2H])([2H])N([C@H]1CN(c2ccc(C(C)C)c3cc(Nc4ccnc(N5CCC(OC)C(F)C5)n4)ncc23)[C@@H]1C)S(C)(=O)=O (stereo partly drawn) [Compound P42]
log10(GI50): 2.88
//
compound: CCCS(=O)(=O)N(C)[C@H]1CN(c2ccc(C(C)C)c3cc(Nc4ccnc(-c5cnn(S(=O)(=O)C6CC6)c5)n4)ncc23)[C@@H]1C [Compound H33]
log10(GI50): 2.31
